Every entry's value here was drawn from the supplement of paper PMC11061612.

# System: DU-4475 (Breast Carcinoma);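 note: after 72 h of two-drug dosing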
# method-summary: Bliss excess, mean over the matrix (fraction); higher = more synergy
experimental-readout: Bliss excess

Worked cases, answers included:
compound	Bliss excess
NC1(C(=O)N[C@@H](CCO)c2ccc(Cl)cc2)CCN(c2ncnc3[nH]ccc23)CC1 [Capivasertib] + CC(C)n1c(=O)n(C)c2cnc3cc(F)c(-c4ccc(OCCCN5CCCCC5)nc4)cc3c21 [AZD1390] (first compound max 10 µM, 7x7, partner max 0.3 µM)	0.0233
Cn1cnc2c(F)c(Nc3ccc(Br)cc3Cl)c(C(=O)NOCCO)cc21 [Selumetinib] + CC(C)n1c(=O)n(C)c2cnc3cc(F)c(-c4ccc(OCCCN5CCCCC5)nc4)cc3c21 [AZD1390] (first compound max 10 µM, 7x7, partner max 0.3 µM)	-0.0112

From here, focus on the item given below.
Problem: DU-4475 (Breast Carcinoma) / Bliss excess / COc1nnc2ccc(N3CCC(c4ccc(OCCN5CCN(C)C(=O)[C@H]5C)cc4)CC3)nn12 [AZD5153] + CN(CC[C@H](CSC1=CC=CC=C1)NC2=C(C=C(C=C2)S(=O)(=O)NC(=O)C3=CC=C(C=C3)N4CCC(CC4)[C@H](C5=CC=CC=C5C6=CC=C(C=C6)Cl)O)S(=O)(=O)C(F)(F)F)CCO [AZD4320] (first compound max 1 µM, 7x7, partner max 1 µM) : value?
Result: 0.0779
